# target.or.test.system: DNA-(apurinic or apyrimidinic site) endonuclease (Homo sapiens)
# Sequence (P27695 whole entry): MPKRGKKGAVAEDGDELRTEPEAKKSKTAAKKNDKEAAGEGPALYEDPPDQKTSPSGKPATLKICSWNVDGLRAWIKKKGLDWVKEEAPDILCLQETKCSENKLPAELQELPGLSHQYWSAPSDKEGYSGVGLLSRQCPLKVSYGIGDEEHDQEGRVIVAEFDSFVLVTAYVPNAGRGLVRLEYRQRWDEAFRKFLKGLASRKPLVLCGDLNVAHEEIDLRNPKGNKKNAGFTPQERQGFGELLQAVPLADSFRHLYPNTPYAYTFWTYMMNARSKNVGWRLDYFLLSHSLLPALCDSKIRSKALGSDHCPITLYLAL
# assay.text: Fluorescence-Based APE1 Endonuclease Activity Assay
# condition.parameters: pH 7.5
pIC50: −log10 of the molar value.
readout.label: pIC50

[1] CC(=O)Nc1ccc(/C=C/c2ccc(N=C=S)c(S(=O)(=O)O)c2)c(S(=O)(=O)O)c1
[2] Nc1ccc2cc(S(=O)(=O)O)cc(O)c2c1/N=N/c1ccc([N+](=O)[O-])cc1S(=O)(=O)O
// query Input pair: 1 , 2 . Output: entry with lower pIC50. Identify your selection by its label.
// result 2
(2: 5.11, 1: 6.60)
